B1: Chromodomain-helicase-DNA-binding protein 5, residues 338 to 390; numbered along this chain, Q8TDI0 (parent)
chain: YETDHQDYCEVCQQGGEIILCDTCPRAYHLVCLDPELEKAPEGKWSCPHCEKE

variants of: B1; test: abundance fitness (aPCA) (normalised: wild type 0, dead -1); higher = more abundant; growth selection in yeast, the domain comes from the species named; settings: Homo sapiens
readout_kind: abundance fitness

* L33T | 0.163
* G43S | 0.087
* L30G | 0.092
* C47T | -0.43
* C47F | -0.765
* G16I | -0.195
* I19C | -0.137
* G15W | -0.136
* V31M | -0.383
* Y28C | 0.001
* L37T | 0.101
* E36A | -0.033
* G16H | 0.435
* C24M | -0.772
* I18E | -0.454
* K52H | 0.223
* E36I | -0.057
* L30K | 0.04
* E38W | -0.127
* I19E | -0.056
* V31C | -0.325
* C32T | -1.02
